System: CCRF-CEM leukemia
Assay: NCI-60 one-dose screen, 48 h (100 = growth as untreated, 0 = no growth, -100 = all killed)
Settings: 10 µM unless noted
Description: Growth inhibition of the CCRF-CEM human tumor cell line is measured as a screen for anti-cancer activity. Cells are grown in 96 well plates and exposed to the test compound for 48 hours. Compounds are tested at a single concentration, which is 10^-5 M for most compounds. The reported endpoint is percent growth (GI% or GIPRCNT), where numbers from 0 - 100% represent growth inhibition, and numbers from -100% - 0 represent cell death. For example, a value of 40 represents 60% growth inhibition. […]
The panel holds about 83,000 compounds, 20% with a hit somewhere; the sample as a whole holds those more often.
The entries below come with measured growth values attached.
Value Type: growth (%)

In [3]: df
Out[3]:
                                   compound  value_type  numeric_result
0     Oc1ccc(C(c2ccc(O)cc2)c2ccc(Br)cn2)cc1      growth             111
1  O=[N+]([O-])c1ccc(NC(=S)N/N=C/c2cc3ccccc3n3nnnc23)cc1      growth            11.3
2  COc1ccc(NC(=O)c2cc(NCc3cc(O)ccc3O)ccc2O)cc1      growth            28.5
3  CCN(CC)c1ccc(/C=N/NC(=O)CSc2nc3ccccc3c(=O)n2Cc2ccc(S(N)(=O)=O)cc2)c(O)c1      growth            10.8
4          CSc1nc2sc3cccc(Cl)c3n2c(=N)c1C#N      growth              86
5  N#Cc1cccc(-c2ccc3c(c2)NC(=O)/C3=C\c2ccc[nH]2)c1      growth            69.7
6  COc1ccc(C(=O)NNc2nc(Cl)nc(N3CCN(C(c4ccccc4)c4ccccc4)CC3)n2)cc1      growth           -8.69
7  O=C(Nc1ccccc1C(=O)N/N=C(\c1ccccc1)c1ccccn1)c1ccc(F)cc1      growth            4.15
8  C[C@H]1[C@H](C)CC[C@]2(C(=O)Nc3ccc4ncccc4c3)CC[C@]3(C)C(=CC[C@@H]4[C@@]5(C)CCCNC(C)(C)[C@@H]5CC[C@]43C)[C@H]12      growth           -25.5
9  CN(C)c1ccc(C2C(C#N)=C(/N=C/c3ccccc3)Oc3c2ccc2ccccc32)cc1 (stereo not given)      growth            66.7

###

tested on: PC-3 prostate; assay: NCI-60 one-dose screen, 48 h; settings: 10 µM unless noted
Compounds without any hit were thinned out: in the full panel of roughly 83,000, 20% have a hit. The source made the active and inactive calls. Rule for the calls: active = growth percent below 10; inactive = the rest.
Classes used: 1 for active, -1 for inactive

                                    compound  assigned_class
 0  O=C(/C=C/c1ccc[nH]1)c1ccc(-n2ccc(C(F)(F)F)n2)c(F)c1              -1
 1  CCOC(=O)CC1CSC(N/N=C/c2ccc(-n3cccn3)cc2)=N1 (configuration not stated)              -1
 2  O=C1c2cccc3c(-c4ccc5c(c4)ncn5C4CCCCC4)ccc(c23)C(=O)N1CCO              -1
 3  CC(C)(C)c1ccc(NS(=O)(=O)c2ccc3nc(NC(=O)c4cnccn4)[nH]c3c2)cc1              -1
 4  COc1cc(/C=C\c2cc(/C=C\c3ccc(O)c(OC)c3)n(C(=O)COc3ccccc3)n2)ccc1O               1
 5     Fc1ccc2c(-c3cncn3CCc3ccccc3)c[nH]c2c1              -1
 6  C=C1C(=O)O[C@H]2[C@H]1CC/C(CNC(=O)C(C)c1ccc(CC(C)C)cc1)=C\CC[C@@]1(C)O[C@@H]21 (some centres not stated)              -1
 7                Oc1ccc(OCCOc2ccc(O)cc2)cc1              -1
 8  COc1ccccc1NC(=O)C1CC(c2ccc(F)cc2)=NO1 (configuration not stated)              -1
 9  CCCOC(=O)N[C@H]1CCc2c(Cl)c(OC)c(OC)c(OC)c2-c2ccc(SC)c(=O)cc21              -1
10  COc1cc2c(cc1OC)C(=O)/C(=C/c1cc(C)c(O)c(C)c1)S2              -1
11  COc1cc2nc(-c3ccc(C(F)(F)F)cc3)cc(OCCCN3CCOCC3)c2cc1OC              -1
12  CC(c1ccccc1)C(C(=O)c1ccccc1)c1ccccc1 (configuration not stated)              -1
13  O=C1Nc2ccccc2/C1=C\c1c(-c2ccccc2)nc2ccccn12              -1
14  O=C(/C=C(O)/C=C/c1ccc(SC(F)(F)F)cc1)/C=C/c1ccc(SC(F)(F)F)cc1              -1
15  O=C1c2c(c3c4cccc(F)c4[nH]c3c3ccc4ccccc4c23)C(=O)N1O              -1
16  O=C(CNCCN1CCOCC1)N1c2cccc3cccc(c23)N(C(=O)CNCCN2CCOCC2)C1c1cn(-c2ccccc2)nc1-c1cccc([N+](=O)[O-])c1              -1
17  O=C(CCN1CCCC1)Nc1ccc2c(Nc3ccc(F)cc3)c3ccccc3nc2c1               1
18  CC(=O)O[C@@H]1C2CCC3C(CC[C@@]4(C)C3CC[C@@H]4C(C)N(C)C)[C@@]2(C)CC[C@@H]1NC(=O)C=C(C)C (some centres not stated)              -1
19  COc1cc2cc(CN3CCN(c4nccc(-c5ccc6ccccc6c5)n4)CC3)c(=O)[nH]c2cc1OC              -1
20  O=C1c2ccccc2CCC12OC2c1cn(-c2ccccc2)nc1-c1ccc(Cl)cc1 (configuration not stated)              -1
21  O=C(Cn1c[n+](CC(=O)c2ccc(-c3ccccc3)cc2)c2ccccc21)Nc1cccc2cccnc12              -1
22  CCOC(=O)CSc1nc2ccccc2c(=O)n1Cc1ccc(S(N)(=O)=O)cc1              -1
23  Cc1ccc(-c2nc3ccccn3c2/C=C2/C(=O)Nc3cc(Cl)ccc32)cc1              -1
24     O=C(Nc1ncc(Cc2cc(Cl)ccc2Cl)s1)c1cccs1              -1
25  Cn1ccnc1C(=O)/C=C/c1ccc(CC(=O)Nc2ccc(Cl)cc2)cc1              -1
26  Cc1c(C(=O)NCCC(=O)NO)sc2ncnc(Nc3ccc(NC(=O)Nc4cccc(C(F)(F)F)c4)cc3)c12              -1
27  CCN1C(=O)/C(=C/C(=O)OC)S/C1=N\NC(=O)c1cc2ccc1/C=C\c1ccc(cc1)/C=C\2              -1
28     CCNc1nc2cc(Nc3ccnc4cc(Cl)ccc34)ccc2o1              -1
29  O=C(Nc1ccc(NC(=O)c2cc(=O)[nH]c3ccccc23)cc1)Nc1cccc(Cl)c1              -1
30  O=S(=O)(NCCCNc1nccc(-c2c(-c3cccc(O)c3)nc3occn23)n1)c1ccc(Cl)cc1              -1
31  Cc1cc(Cl)nc(N(CCNc2ccnc3cc(Cl)ccc23)Cc2ccccn2)n1              -1
32  COc1cc2c(c(O)c1Br)C(=O)c1c(O)cc(C[C@H](C)O)cc1[C@H]2[C@H]1c2cc(C[C@H](C)O)cc(O)c2C(=O)c2c1cc(OC)c(Br)c2O              -1
33  CN1CCN(C(=O)[C@]23CCC(C)(C)C[C@H]2C2=CC[C@@H]4[C@@]5(C)C/C(=C/c6ccncc6)C(=O)C(C)(C)[C@@H]5CC[C@@]4(C)[C@]2(C)CC3)CC1              -1
34  O=c1[nH]nc(-c2ccccc2)c2sc3ncc(-c4ccc(Br)cc4)n3c12              -1
35  CNCCn1c(=O)c2cc(OC)c(OC)cc2c2ccc3cc4c(cc3c21)OCO4               1
36  O=C(c1ccccc1)N1N=C(c2ccc(-n3ccc(C(F)(F)F)n3)c(F)c2)CC1c1ccc[nH]1 (configuration not stated)              -1

###

system: SF-268 CNS; experiment: NCI-60 one-dose screen, 48 h; conditions: 10 µM unless noted
Compounds without any hit were thinned out: in the full panel of roughly 83,000, 20% have a hit. The source made the active and inactive calls. How the source made its calls: active means growth percent below 10; inactive means the rest.
Classes used: t for active, f for inactive

Molecule	Assigned Class
CC(=O)[C@@H]1CC[C@]2(CO)CC[C@]3(C)[C@H](CC[C@@H]4[C@@]5(C)CCCNC(C)(C)[C@@H]5CC[C@]43C)[C@@H]12	f
CC(Sc1nc2ccccc2c(=O)n1CCc1ccc(S(N)(=O)=O)cc1)C(=O)Nc1ccc(Cl)cc1 (stereo not given)	f
C=C1C(=O)O[C@H]2[C@H]1CC/C(CNC(=O)c1cccc3ccccc13)=C\CC[C@@]1(C)O[C@@H]21	f
COc1cc(-c2n/c(=C\c3c(O)[nH]c4ccc(Cl)cc34)cc3c2=Nc2ccccc2-3)ccc1F	t
N#Cc1c(NC(=O)NCc2ccccc2)sc2c1CCCCC2	f
CC(=O)[C@H]1CCC/C=C/[C@@H]2C[C@H](O)C[C@H]2[C@H](O)/C=C/C(=O)O1	f
O=C(CCN1CCCC1)c1ccc([N+](=O)[O-])cc1	f
CCN(CC)c1ccc(/C=N/NC(=O)CSc2nc3ccccc3c(=O)n2CCc2ccc(S(N)(=O)=O)cc2)c(O)c1	f
N#CC(C#N)=Cc1cc2ccccc2nc1Oc1ccc(C(F)(F)F)cc1	f
COc1cccc(-c2nc3occn3c2-c2ccnc(NCCNS(=O)(=O)c3cccc4ccccc34)n2)c1	f
CCN1CCN(CCNc2nccc(-c3c(-c4cccc(OC)c4)nc4occn34)n2)S1(=O)=O	f
N#CC1=C(N)Oc2c(ccc3ccccc23)C1c1ccccc1Cl (stereo not given)	f
O=S(=O)(Nc1ccc(-n2cnc3cc(-c4ccc(O)cc4)ccc32)cc1)c1ccccc1	f
Cc1cnc(C(=O)Nc2nc3ccc(S(=O)(=O)Nc4ccc(C(C)(C)C)cc4)cc3[nH]2)cn1	f
COc1ccc2[nH]c(=O)c(CN3CCN(c4nccc(-c5ccc(Cl)cc5)n4)CC3)cc2c1	f
N/C(=N\C(N)=N\c1nc2ccccc2s1)c1cnccn1	f
COc1c(Cl)c2c(c(OC)c1OC)-c1ccc(SC)c(=O)cc1[C@@H](NC(=O)OCC(F)(F)F)CC2	f
CC(C)c1ccc(Nc2ccc3c(OCCCN4CCN(C)CC4)cccc3n2)cc1	f
Cc1ncc(C(=O)Nc2ccc(CN3CCN(C)CC3)c(C(F)(F)F)c2)cc1C#Cc1cnc(N)cc1C#N	f
C#CCNC(=O)[C@]1(C)CC[C@]2(C)CC[C@@H]3C(=CC[C@H]4[C@@]3(C)CC[C@H]3C(C)(C)C(=O)CC[C@]43C)[C@@H]2C1	f
O=C(Nc1ccc(-c2ccc3c(c2)NC(=O)/C3=C\c2ccc[nH]2)cc1)NC1CC1	f
CCN(CC)CCOc1ccc(NC(=O)C(C(C)C)N2C(=O)/C(=C/c3ccc(Br)cc3)SC2=S)cc1 (stereo not given)	f
C=C(C)[C@@H]1CC[C@]2(C(=O)N[C@@H](Cc3ccccc3)C(=O)OC)CC[C@]3(C)[C@H](CC[C@@H]4[C@@]5(C)CCC(=O)C(C)(C)[C@@H]5CC[C@]43C)[C@@H]12	f
C=C(C)[C@@H]1CC[C@]2(C(=O)N3CCN(C)CC3)CC[C@]3(C)[C@H](CC[C@@H]4[C@@]5(C)CC[C@H](OCCC#N)C(C)(C)[C@@H]5CC[C@]43C)[C@@H]12	f
COc1ccc(C(=O)c2cc(C)c(OC)c(C)c2)c(OC)c1N(C(=O)CCl)C(=O)CCl	f
O=S(=O)(NCCNc1nccc(-c2c(-c3cccc(O)c3)nc3occn23)n1)c1ccc(Cl)cc1	f
O=C(c1nc2ccccc2[nH]1)C1C(c2ccc(Cl)cc2)C2CC3CCCC[C@H]3N2[C@@]12C(=O)Nc1cc(Cl)ccc12 (stereo not given in full)	f
CC(C)N1C(=O)S/C(=C2/SC(=O)N(C(C)C)C2=O)C1=O	f
NS(=O)(=O)c1ccc(CCN2C(=O)c3cc(Cl)c(Cl)cc3C2=O)cc1	f
Nc1c(C(=O)Nc2cccc3cnccc23)sc2nc3c(cc12)C(=O)CCC3	f
COc1ccc(/C=C/c2nc(Nc3cccc(NC(C)=O)c3)c3ccccc3n2)cc1	f
CN1CCN(C(=O)[C@]23CCC(C)(C)C[C@H]2C2=CC[C@@H]4[C@@]5(C)C/C(=C/c6cccnc6)C(=O)C(C)(C)[C@@H]5CC[C@@]4(C)[C@]2(C)CC3)CC1	f
O=C(Cn1c[n+](CC(=O)c2ccc(-c3ccccc3)cc2)c2ccccc21)Nc1cccc2cccnc12	f
CCc1c(Cl)nc(N)nc1Nc1ccc(C)c(C)c1	f
COc1ccc(CNCCN2C(=O)c3ccc4c5c(ccc(c35)C2=O)C(=O)N(CCNCc2ccc(OC)c(OC)c2OC)C4=O)c(OC)c1OC	t
